The entries below are paired with their reported IC50.
system under test: Human TRPA1 (Homo sapiens, UniProt O75762)
Sequence (O75762 whole entry): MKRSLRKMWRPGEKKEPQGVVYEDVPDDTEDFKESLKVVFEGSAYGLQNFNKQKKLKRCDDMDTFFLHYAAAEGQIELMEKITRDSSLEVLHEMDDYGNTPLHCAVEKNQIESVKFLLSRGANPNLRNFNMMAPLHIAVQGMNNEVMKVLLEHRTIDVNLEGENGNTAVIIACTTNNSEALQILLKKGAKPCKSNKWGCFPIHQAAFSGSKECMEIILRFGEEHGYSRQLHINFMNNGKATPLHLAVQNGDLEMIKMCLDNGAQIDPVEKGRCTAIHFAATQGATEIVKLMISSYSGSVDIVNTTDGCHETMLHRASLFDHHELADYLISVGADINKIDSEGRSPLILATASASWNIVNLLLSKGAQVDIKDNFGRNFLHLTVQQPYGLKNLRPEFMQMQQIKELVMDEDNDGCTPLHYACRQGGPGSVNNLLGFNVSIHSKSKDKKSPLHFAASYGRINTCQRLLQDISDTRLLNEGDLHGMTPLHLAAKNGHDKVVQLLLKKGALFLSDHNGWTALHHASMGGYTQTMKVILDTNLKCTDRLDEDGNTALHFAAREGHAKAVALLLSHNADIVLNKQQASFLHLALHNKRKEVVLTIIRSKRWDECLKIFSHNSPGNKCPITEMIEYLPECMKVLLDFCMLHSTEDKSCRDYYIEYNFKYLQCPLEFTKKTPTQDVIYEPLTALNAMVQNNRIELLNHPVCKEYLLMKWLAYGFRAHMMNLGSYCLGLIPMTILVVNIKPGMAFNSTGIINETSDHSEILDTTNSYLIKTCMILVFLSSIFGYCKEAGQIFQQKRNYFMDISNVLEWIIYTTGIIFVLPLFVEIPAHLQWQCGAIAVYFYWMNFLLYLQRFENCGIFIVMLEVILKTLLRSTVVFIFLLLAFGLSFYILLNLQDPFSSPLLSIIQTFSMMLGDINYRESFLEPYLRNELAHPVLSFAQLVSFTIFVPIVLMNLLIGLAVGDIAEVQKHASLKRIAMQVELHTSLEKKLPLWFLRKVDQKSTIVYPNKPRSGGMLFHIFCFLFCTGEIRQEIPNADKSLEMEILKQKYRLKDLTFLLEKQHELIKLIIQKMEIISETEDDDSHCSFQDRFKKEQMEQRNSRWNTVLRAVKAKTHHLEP
run description: 45Calcium uptake assay: inhibition of AITC induced cellular uptake of radioactive calcium
setup conditions: human TRPA1 expressing CHO cells, AITC 30 μM
Structures can show the parent of a compound that is named as a salt.

[
  {
    "compound": "CC(C)C(=O)OCn1c(-c2ccc(C(F)(F)F)c(F)c2)cs/c1=N\\C(=O)Cc1csc2c1c(=O)n(C)c(=O)n2C [Example 1]",
    "IC50": "100 to 500 nM"
  },
  {
    "compound": "Cc1sc2c(c1CC(=O)/N=c1\\scc(-c3ccc(F)c(C(F)(F)F)c3F)n1COP(=O)(O)O)c(=O)n(C)c(=O)n2C [Example 16]",
    "IC50": "> 500 nM"
  },
  {
    "compound": "Cn1c(=O)c2c(CC(=O)/N=c3\\scc(-c4ccc(F)c(C(F)(F)F)c4F)n3COP(=O)(O)O)csc2n(C)c1=O [Example 13]",
    "IC50": "> 500 nM"
  },
  {
    "compound": "CC(C)[C@H](N)C(=O)OCn1c(-c2ccc(F)c(C(F)(F)F)c2F)cs/c1=N\\C(=O)Cc1csc2c1c(=O)n(C)c(=O)n2C [Example 5, hydrochloride]",
    "IC50": "< 100 nM"
  },
  {
    "compound": "Cn1c(=O)c2c(CC(=O)/N=c3\\scc(-c4ccc(C(F)(F)F)c(F)c4F)n3COP(=O)(O)O)nsc2n(C)c1=O [Example 31]",
    "IC50": "> 500 nM"
  },
  {
    "compound": "Cc1oc2c(c1CC(=O)/N=c1\\scc(-c3ccc(OC(F)(F)F)c(Cl)c3)n1COC(=O)[C@@H](N)Cc1ccccc1)c(=O)n(C)c(=O)n2C [Example 24, hydrochloride]",
    "IC50": "< 100 nM"
  },
  {
    "compound": "Cn1c(=O)c2c(CC(=O)/N=c3\\scc(-c4ccc(C(F)(F)F)c(F)c4)n3COP(=O)(O)O)csc2n(C)c1=O [Example 12]",
    "IC50": "100 to 500 nM"
  },
  {
    "compound": "Cc1sc2c(c1CC(=O)/N=c1\\scc(-c3ccc(F)c(C(F)(F)F)c3F)n1COP(=O)(O)O)c(=O)n(C)c(=O)n2C [Example 15]",
    "IC50": "100 to 500 nM"
  },
  {
    "compound": "Cc1oc2c(c1CC(=O)/N=c1\\scc(-c3ccc(OC(F)(F)F)c(Cl)c3)n1COC(=O)[C@@H](N)C(C)C)c(=O)n(C)c(=O)n2C.Cl [Example 21, hydrochloride]",
    "IC50": "< 100 nM"
  },
  {
    "compound": "Cn1c(=O)c2c(CC(=O)/N=c3\\scc(-c4ccc(C(F)(F)F)c(F)c4)n3COC(=O)C3CCNCC3)csc2n(C)c1=O [Example 9, hydrochloride]",
    "IC50": "100 to 500 nM"
  },
  {
    "compound": "Cc1oc2c(c1CC(=O)/N=c1\\scc(-c3ccc(OC(F)(F)F)c(Cl)c3)n1COP(=O)(O)O)c(=O)n(C)c(=O)n2C [Example 25]",
    "IC50": "> 500 nM"
  },
  {
    "compound": "Cl.Cn1c(=O)c2c(CC(=O)/N=c3\\scc(-c4ccc(F)c(C(F)(F)F)c4F)n3COC(=O)C3CCNCC3)csc2n(C)c1=O [Example 10, hydrochloride]",
    "IC50": "100 to 500 nM"
  },
  {
    "compound": "Cc1oc2c(c1CC(=O)/N=c1\\scc(-c3ccc(OC(F)(F)F)c(Cl)c3)n1COC(=O)C1CCNCC1)c(=O)n(C)c(=O)n2C.Cl [Example 23, hydrochloride]",
    "IC50": "100 to 500 nM"
  },
  {
    "compound": "Cn1c(=O)c2c(CC(=O)/N=c3\\scc(-c4ccc(C(F)(F)F)c(F)c4)n3COP(=O)(O)O)csc2n(C)c1=O [Example 11]",
    "IC50": "> 500 nM"
  },
  {
    "compound": "CCc1sc2c(c1CC(=O)/N=c1\\scc(-c3ccc(C(F)(F)F)c(F)c3)n1COP(=O)(O)O)c(=O)n(C)c(=O)n2C [Example 17]",
    "IC50": "> 500 nM"
  },
  {
    "compound": "CC[C@H](C)[C@H](N)C(=O)OCn1c(-c2ccc(F)c(C(F)(F)F)c2F)cs/c1=N\\C(=O)Cc1csc2c1c(=O)n(C)c(=O)n2C.Cl [Example 7, hydrochloride]",
    "IC50": "< 100 nM"
  },
  {
    "compound": "CC(C)C(=O)OCn1c(-c2ccc(F)c(C(F)(F)F)c2F)cs/c1=N\\C(=O)Cc1csc2c1c(=O)n(C)c(=O)n2C [Example 2]",
    "IC50": "> 500 nM"
  },
  {
    "compound": "Cc1oc2c(c1CC(=O)/N=c1\\scc(-c3ccc(OC(F)(F)F)c(Cl)c3)n1COC(=O)C(C)(C)C)c(=O)n(C)c(=O)n2C [Example 19]",
    "IC50": "100 to 500 nM"
  },
  {
    "compound": "Cn1c(=O)c2c(CC(=O)/N=c3\\scc(-c4ccc(F)c(C(F)(F)F)c4F)n3COP(=O)([O-])[O-])csc2n(C)c1=O.[Na+].[Na+] [Example 14]",
    "IC50": "100 to 500 nM"
  }
]

---

system under test: Human TRPA1 (Homo sapiens, UniProt O75762)
Construct: expressed in transfected cells; host or cells: CHO cells (grown with 400 μg/ml G-418)
run description: 45Calcium uptake assay: inhibition of AITC induced cellular uptake of radioactive calcium
Type: cell-based
setup conditions: 1.0 μM; human TRPA1 expressing CHO cells, AITC 30 μM; read-out: Percentage inhibition at 1.0 μM
Where a name gives a salt, the structure may show the parent alone.
inhibition at 1 µM values, listed per item
result type: inhibition at 1 µM

[
  {
    "molecule": "Cn1c(=O)c2c(CC(=O)/N=c3\\scc(-c4ccc(C(F)(F)F)c(F)c4)n3COC(=O)C3CCNCC3)csc2n(C)c1=O [Example 9, hydrochloride]",
    "recorded result": "80.1%"
  },
  {
    "molecule": "Cc1oc2c(c1CC(=O)/N=c1\\scc(-c3ccc(OC(F)(F)F)c(Cl)c3)n1COC(=O)CN)c(=O)n(C)c(=O)n2C.Cl [Example 20, hydrochloride]",
    "recorded result": "96.7%"
  },
  {
    "molecule": "Cc1oc2c(c1CC(=O)/N=c1\\scc(-c3ccc(OC(F)(F)F)c(Cl)c3)n1COC(=O)C1CCNCC1)c(=O)n(C)c(=O)n2C.Cl [Example 23, hydrochloride]",
    "recorded result": "91.2%"
  },
  {
    "molecule": "CC[C@H](C)[C@H](N)C(=O)OCn1c(-c2ccc(F)c(C(F)(F)F)c2F)cs/c1=N\\C(=O)Cc1csc2c1c(=O)n(C)c(=O)n2C.Cl [Example 7, hydrochloride]",
    "recorded result": "98.6%"
  },
  {
    "molecule": "Cn1c(=O)c2c(CC(=O)/N=c3\\scc(-c4ccc(C(F)(F)F)c(F)c4)n3COP(=O)(O)O)csc2n(C)c1=O [Example 11]",
    "recorded result": "53.4%"
  },
  {
    "molecule": "Cn1c(=O)c2c(CC(=O)/N=c3\\scc(-c4ccc(F)c(C(F)(F)F)c4F)n3COC(=O)[C@@H]3CCCN3)csc2n(C)c1=O [Example 8, hydrochloride]",
    "recorded result": "96.5%"
  },
  {
    "molecule": "CCc1sc2c(c1CC(=O)/N=c1\\scc(-c3ccc(C(F)(F)F)c(F)c3)n1COP(=O)(O)O)c(=O)n(C)c(=O)n2C [Example 17]",
    "recorded result": "20.8%"
  },
  {
    "molecule": "CC[C@H](C)[C@H](N)C(=O)OCn1c(-c2ccc(C(F)(F)F)c(F)c2)cs/c1=N\\C(=O)Cc1csc2c1c(=O)n(C)c(=O)n2C.Cl [Example 6, hydrochloride]",
    "recorded result": "89.8%"
  },
  {
    "molecule": "CC(C)C(=O)OCn1c(-c2ccc(F)c(C(F)(F)F)c2F)cs/c1=N\\C(=O)Cc1csc2c1c(=O)n(C)c(=O)n2C [Example 2]",
    "recorded result": "54.8%"
  },
  {
    "molecule": "CC(C)C(=O)OCn1c(-c2ccc(C(F)(F)F)c(F)c2)cs/c1=N\\C(=O)Cc1csc2c1c(=O)n(C)c(=O)n2C [Example 1]",
    "recorded result": "68.1%"
  },
  {
    "molecule": "Cn1c(=O)c2c(CC(=O)/N=c3\\scc(-c4ccc(C(F)(F)F)c(F)c4F)n3COP(=O)(O)O)nsc2n(C)c1=O [Example 31]",
    "recorded result": "60%"
  },
  {
    "molecule": "Cl.Cn1c(=O)c2c(CC(=O)/N=c3\\scc(-c4ccc(F)c(C(F)(F)F)c4F)n3COC(=O)C3CCNCC3)csc2n(C)c1=O [Example 10, hydrochloride]",
    "recorded result": "90.5%"
  },
  {
    "molecule": "Cn1c(=O)c2c(CC(=O)N=c3scc(-c4ccc(C(F)(F)F)c(F)c4F)n3COP(=O)(O)O)nsc2n(C)c1=O [Example 32, phosphate]",
    "recorded result": "13.8%"
  },
  {
    "molecule": "Cc1oc2c(c1CC(=O)/N=c1\\scc(-c3ccc(C(F)(F)F)c(F)c3F)n1COP(=O)(O)O)c(=O)n(C)c(=O)n2C [Example 27]",
    "recorded result": "93.8%"
  },
  {
    "molecule": "CC[C@H](C)[C@H](N)C(=O)OCn1c(-c2ccc(OC(F)(F)F)c(Cl)c2)cs/c1=N\\C(=O)Cc1c(C)oc2c1c(=O)n(C)c(=O)n2C [Example 22, hydrochloride]",
    "recorded result": "99.2%"
  },
  {
    "molecule": "Cc1sc2c(c1CC(=O)/N=c1\\scc(-c3ccc(F)c(C(F)(F)F)c3F)n1COP(=O)(O)O)c(=O)n(C)c(=O)n2C [Example 15]",
    "recorded result": "81.2%"
  },
  {
    "molecule": "Cl.Cn1c(=O)c2c(CC(=O)/N=c3\\scc(-c4ccc(F)c(C(F)(F)F)c4F)n3COC(=O)CN)csc2n(C)c1=O [Example 3, hydrochloride]",
    "recorded result": "100%"
  },
  {
    "molecule": "Cc1oc2c(c1CC(=O)/N=c1\\scc(-c3ccc(OC(F)(F)F)c(Cl)c3)n1COC(=O)C(C)(C)C)c(=O)n(C)c(=O)n2C [Example 19]",
    "recorded result": "70.3%"
  }
]

Attribution: patent US9073955B2
